protocol_details: Metabolic stability in cynomolgus monkey plasma assessed as compound remaining at 185 to 259 MBq, iv measured at 60 mins by HPLC analysis
Assay type: ADME, organism-based, Macaca fascicularis
assay_setup: read-out: Stability
quantity_name: remaining at 1 h (%)

> print(dat)
                               smiles.input     quantity.name  readout.number
1  Cn1cc(-c2ccncc2)c(-c2ccc(OCc3cc(OCC[18F])c4ccccc4n3)cc2)n1  remaining at 1 h              75
2  Cn1cc(-c2ccncc2)c(-c2ccc(OCc3nc4ccccc4cc3OCC[18F])cc2)n1  remaining at 1 h              55
